Target Desc: human mPGES-1 (Homo sapiens, UniProt O14684)
Sequence (O14684 whole entry): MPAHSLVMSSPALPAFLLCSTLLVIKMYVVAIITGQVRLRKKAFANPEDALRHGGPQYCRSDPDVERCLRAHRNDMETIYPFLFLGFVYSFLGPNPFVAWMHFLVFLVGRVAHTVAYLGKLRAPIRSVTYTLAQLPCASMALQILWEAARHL
Assay: in vitro inhibition of human mPGES-1
Assay type: biochemical
Measurement Setup: Table 2
Reported Endpoint: activity against human mPGES-1 in words

The examples below pair each entry with its known result.
In [3]: df
Out[3]:
                                   compound                               target_desc                        reported_endpoint                 result
0  CCCCCCOc1ccc(-c2nn(-c3ccc(Cl)cc3)cc2/C=C(\C#N)C(=O)O)cc1 [14a]  human mPGES-1 (Homo sapiens, UniProt O14684)  activity against human mPGES-1 in words  submicromolar potency
1  CCOc1ccc(-c2nn(-c3ccc(Cl)cc3)cc2/C=C(\C#N)C(=O)O)cc1 [13a]  human mPGES-1 (Homo sapiens, UniProt O14684)  activity against human mPGES-1 in words  submicromolar potency
2  CCOc1ccc(-c2nn(-c3ccc(Cl)cc3)cc2C=C(C#N)C#N)cc1 [13b]  human mPGES-1 (Homo sapiens, UniProt O14684)  activity against human mPGES-1 in words        not very active
3  CCCCCCOc1ccc(-c2nn(-c3ccc(Cl)cc3)cc2/C=C(\C#N)C(N)=O)cc1 [14c]  human mPGES-1 (Homo sapiens, UniProt O14684)  activity against human mPGES-1 in words        not very active
4  CCOc1ccc(-c2nn(-c3ccc(Cl)cc3)cc2/C=C(\C#N)C(N)=O)cc1 [13c]  human mPGES-1 (Homo sapiens, UniProt O14684)  activity against human mPGES-1 in words        not very active

Ask: Form field: reported activity against human mPGES-1 in words of CCCCCCOc1ccc(-c2nn(-c3ccc(Cl)cc3)cc2C=C(C#N)C#N)cc1 [14b]
Result: not very active
